Test system: KM12
Experiment: NCI tumour cell line growth inhibition, 48 h
Activity calls are given as the source filed them. No stated cut-off is given here; in the data, active = GI50 up to about 1.1 µM and inactive = higher.
Quick list: GI50 per entry.

Worked set:
O=C1C=CC(=O)N1Nc1ccc([N+](=O)[O-])cc1[N+](=O)[O-] :: > 100 µM (inactive)
CCOC(=O)CN(Cc1ccccc1)Cc1c(C(=O)c2ccccc2)c2ccccc2n1C(=O)c1ccccc1 :: > 100 µM (inactive)
CN(C)CCNC(=O)c1cccc2c1C(=O)c1ccccc1C2=O :: > 58.1 µM (inactive)
COC(=O)C1=Nc2c(C)nn(-c3ccccc3)c2N=C(c2ccc(C)cc2)C1 :: > 10 µM (inactive)

// query Quick check: GI50 of CCCCCCN1C(=O)CC(=O)N(CCCCCC)S1(=O)=O ?
// result 28.1 µM (inactive)

* * *

System: KM-20L2
Assay: NCI tumour cell line growth inhibition, 48 h
Active and inactive are the calls of the source. Cut-off read from the data, not from the text of the source: active = GI50 up to about 1.1 µM and inactive = higher.
READOUT_LABEL: GI50

As a guide, the following entries are already answered.
Cc1ccc([N+](=O)[O-])cc1NC(=O)c1cccc([N+](=O)[O-])c1O :: 25.5 µM (inactive)
CC1CCc2c(sc3ncnc(N/N=C/c4ccc(Cl)cc4)c23)C1 (stereo not drawn) :: 22.8 µM (inactive)

// query Which GI50 value belongs to NC(=O)NC(=O)C1CCC(=O)N1S(=O)(=O)c1ccc(Cl)cc1 (stereo not drawn) ?
// result > 100 µM (inactive)

* * *

Test system: HL-60
Assay: NCI tumour cell line growth inhibition, 48 h
The source made the active and inactive calls. Cut-off read from the data, not from the text of the source: active = GI50 up to about 1.1 µM and inactive = higher.
Pick from YES (active), NO (inactive) when you respond.

Below are worked cases with known answers.
O=C(O)C1CCCCN1C(=O)c1ccccc1 (configuration not stated) :: NO
CSCCC(NC(=O)Cc1ccc(C(=O)c2ccccc2)cc1)C(=O)N1CCN(CCCCN2c3ccccc3Sc3cc(N=[N+]=[N-])ccc32)CC1 (configuration not stated) :: NO
CC1=C[C@H]2C[C@@]3(C)O[C@@H]([C@]4(C)CC[C@H]([C@@H](C)C(=O)O)OO4)CC3C(C)(C)[C@H]2CC1 (some centres not stated) :: YES

// query Record request — test call for COc1ccc(C(=O)Nc2ccn(CCOC(=O)c3ccc(OC)cc3)c(=O)n2)cc1
// result NO

// query Dear all, I need the recorded test outcome for CN(C)CCNC(=O)c1cccc2ccc(-c3cccnc3)nc12 , thank you.
// result NO

// query How did this test come out for CC1=COC(C)(C=C(C#N)C#N)CC1 (configuration not stated) ?
// result NO

// query How did this test come out for CC(C)C1COC(C(C)(C)C2=N[C@@H](C(C)C)CO2)=N1 (some centres not stated) ?
// result NO

// query Dear all, I need the recorded test outcome for CCOC(=O)/C(C#N)=N\Nc1ccc(-n2c(C)nc3ccccc3c2=O)cc1 , thank you.
// result NO

// query Check the results log: what was the call for O=C(O)c1ccc2c(c1)CC1(C2)Cc2cc3c(cc2C1=O)CCC3 (configuration not stated) ?
// result NO

// query Recorded test outcome, item Cc1c2ccccc2c(C)n2c1nc1cc(Cl)c(Cl)cc12
// result NO

// query What did this assay record as the result for C1CSCCSCCSCCSCCS1 ?
// result NO

// query I would be grateful if you could indicate the recorded call for O/N=C\c1c(O)ccc2ccccc12 .
// result NO

* * *

System: SR
Experiment: NCI tumour cell line growth inhibition, 48 h
Activity calls are given as the source filed them. Cut-off read from the data, not from the text of the source: active = GI50 up to about 1.1 µM and inactive = higher.
READOUT_LABEL: GI50

// query // returns reported GI50 for input CN(C)C(=O)Nc1c([N+](=O)[O-])cc(C(F)(F)F)cc1[N+](=O)[O-]
// result 58.7 µM (inactive)

// query Recorded GI50 for Cn1c2c(c3ccccc31)C1C(=O)N(c3ccccc3)C(=O)C1CC2 (stereo not given) , please?
// result > 303 µM (inactive)

// query Look up GI50: CCOC(C)OC1CC(n2cc(C)c(=O)[nH]c2=O)OC1CO (stereo not given)
// result > 100 µM (inactive)

// query So what's the measured GI50 for this one? CC(=O)O[C@]12CCCCCCC1C1(O)C(O)CCC[C@H]12 (stereo not given in full)
// result > 100 µM (inactive)

// query Entry COC(=O)C1Cc2cc3c(cc2C1=O)CCCC3 (stereo not given) has what GI50?
// result 30.3 µM (inactive)
